Tested on: ACHN renal
Test: NCI-60 one-dose screen, 48 h (100 = growth as untreated, 0 = no growth, -100 = all killed)
Details: 10 µM unless noted
About 83,000 compounds went through this panel and 20% of them were active in at least one assay; those are over-represented in the sample as a whole. Active and inactive are the calls of the source. Rule for the calls: active = growth percent below 10; inactive = the rest.
REPORTED_ENDPOINT: growth

>  <SAMPLE_SMILES>
O=C(O)CCCCCN1C(=O)/C(=C/c2ccc(O)c(O)c2)SC1=S

>  <growth>
109% (inactive)

$$$$
>  <SAMPLE_SMILES>
Nc1cc(-c2c[nH]c3ccc(F)cc23)nc2cc(-c3c[nH]c4ccc(F)cc34)nn12

>  <growth>
66.3% (inactive)

$$$$
>  <SAMPLE_SMILES>
Cn1cc(-c2cc(N)n3nc(-c4cn(C)c5ccc(Br)cc45)cc3n2)c2cc(Br)ccc21

>  <growth>
92.2% (inactive)

$$$$
>  <SAMPLE_SMILES>
Clc1ccc2oc3c(NCCCn4ccnc4)c4ccccc4nc3c2c1

>  <growth>
9.12% (active)

$$$$
>  <SAMPLE_SMILES>
Nc1cc(-c2c[nH]c3ccccc23)nc2cc(-c3c[nH]c4ccccc34)nn12

>  <growth>
51.6% (inactive)

$$$$

// recorded growth for `O=C(CN1CCOCC1)NNc1ncnc2ccccc12` : -91% (active)

The recorded growth for entry `CC(=O)Oc1ccccc1C(=O)Nc1cc(C(C)C)ccc1C` equals 10.1% (inactive)

`CN1CCN(Cc2ccc(NC(=O)c3cncc(C#Cc4cnc5[nH]ncc5c4)c3)cc2C(F)(F)F)CC1` has a reported growth of 8.5% (active)

The compound listed as `CC(C)(C)OC(=O)N1C(=O)c2c(c3c4ccccc4[nH]c3c3ccc4ccccc4c23)C1=O` shows growth equal to 34.5% (inactive)

Field growth (entry `COc1ccc(/C=C/C(=O)c2ccc(NC(=O)CSc3nnc(-c4ccc5nc(-c6ccc(Cl)cc6)[nH]c5c4)o3)cc2)cc1` ) reads 102% (inactive)
